Test protocol: Plasma pharmacokinetics after single intravenous and oral dose
Assay type: in vivo, male BALB/c mice
Condition: male, BALB/c, mouse, plasma, po, 5 mg/kg, PO 5 mg/kg, 1 hr; read-out: Plasma concentration, Mean
Endpoint: concentration at 1 hr (ng/mL)
Give the value, in units of ng/mL, as a plain number.

Q) Hello, please tell me recorded concentration at 1 hr for this one: Cn1c(=O)c2c(ncn2CC(=O)Nc2ccc(-c3ccccc3O)nn2)n(C)c1=O [Compound 1]
A) 457

###

Test protocol: Plasma pharmacokinetics after single intravenous and oral dose
Assay type: in vivo, male BALB/c mice
Condition: male, BALB/c, mouse, plasma; PO 5 mg/kg vs IV 1 mg/kg, solution, from AUClast; read-out: % F (oral bioavailability)
Endpoint: bioavailability
Include the unit right after the number.

Q) Hello, please tell me recorded bioavailability for this one: Cn1c(=O)c2c(ncn2CC(=O)Nc2ccc(-c3ccccc3O)nn2)n(C)c1=O
A) 42%

###

Test protocol: Plasma pharmacokinetics after single intravenous and oral dose
Assay type: in vivo, male BALB/c mice
Condition: male, BALB/c, mouse, plasma, po, 5 mg/kg, PO 5 mg/kg, 6 hr; read-out: Plasma concentration, Mean
Endpoint: concentration at 6 hr (ng/mL)
Give the value, in units of ng/mL, as a plain number.

Q) Hello, please tell me recorded concentration at 6 hr for this one: Cn1c(=O)c2c(ncn2CC(=O)Nc2ccc(-c3ccccc3O)nn2)n(C)c1=O [Compound 1]
A) 91.8

###

Test protocol: Plasma pharmacokinetics after single intravenous and oral dose
Assay type: in vivo, male BALB/c mice
Condition: male, BALB/c, mouse, plasma, iv, 1 mg/kg, IV 1 mg/kg, 0.25 hr; read-out: Plasma concentration, Mean
Endpoint: concentration at 0.25 hr (ng/mL)
Give the value, in units of ng/mL, as a plain number.

Q) Hello, please tell me recorded concentration at 0.25 hr for this one: Cn1c(=O)c2c(ncn2CC(=O)Nc2ccc(-c3ccccc3O)nn2)n(C)c1=O [Compound 1]
A) 1020

###

Test protocol: Plasma pharmacokinetics after single intravenous and oral dose
Format: in vivo, male BALB/c mice
Condition: male, BALB/c, mouse, plasma, po, 5 mg/kg, PO 5 mg/kg, 6 hr; read-out: Plasma concentration, individual animals
Endpoint: concentration at 6 hr (ng/mL)
Give the value, in units of ng/mL, as a plain number.

Q) Hello, please tell me recorded concentration at 6 hr for this one: Cn1c(=O)c2c(ncn2CC(=O)Nc2ccc(-c3ccccc3O)nn2)n(C)c1=O
A) 83.2

###

Test protocol: Plasma pharmacokinetics after single intravenous and oral dose
Type: in vivo, male BALB/c mice
Condition: male, BALB/c, mouse; IV 1 mg/kg, plasma; read-out: C0 (back extrapolated conc.)
Endpoint: C0 (ng/mL)
Give the value, in units of ng/mL, as a plain number.

Q) Hello, please tell me recorded C0 for this one: Cn1c(=O)c2c(ncn2CC(=O)Nc2ccc(-c3ccccc3O)nn2)n(C)c1=O
A) 2750

###

Test protocol: Plasma pharmacokinetics after single intravenous and oral dose
Assay type: in vivo, male BALB/c mice
Condition: male, BALB/c, mouse, plasma, po, 5 mg/kg, PO 5 mg/kg, 2 hr; read-out: Plasma concentration, individual animals
Endpoint: concentration at 2 hr
Include the unit right after the number.

Q) Hello, please tell me recorded concentration at 2 hr for this one: Cn1c(=O)c2c(ncn2CC(=O)Nc2ccc(-c3ccccc3O)nn2)n(C)c1=O [Compound 1]
A) 535 ng/mL
